B1: RHOBTB1 (parent)
chain: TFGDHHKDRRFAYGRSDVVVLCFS

# Variants of: B1
# assay.summary: protein stability index of a GFP-peptide fusion (GPS, HEK-293T) (PSI 1-6); higher = more stable;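 further: lentivirally expressed fusions sorted by FACS into six bins by GFP to DsRed ratio, PSI derived from sequencing read proportions per bin multiplied by bin number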
# assay.conditions: c terminus: a fixed tail appended
Answer not satisfied if protein stability index is under 3, and satisfied if it is 3 or more.

q: Kindly determine if protein stability index recorded for H5A is above or exactly 3.
a: not satisfied

q: Then this variant: H5Y
a: not satisfied

q: Then what about the variant G3S ?
a: not satisfied

q: Moving on to D4E
a: satisfied

q: What do you get for R10M ?
a: not satisfied

q: Entry to check: D17F
a: not satisfied

q: Note, next up: G14T
a: satisfied

q: Would you mind doing F23L as well?
a: not satisfied

q: And R15P ?
a: not satisfied

q: // repeat for Y13R and report
a: not satisfied

q: Next: R15I
a: not satisfied
